Where do the numbers come from? From patent US20170253656A1.

Kd overview
Molecular target: T1, hu-CD74 antigen (R&D SYSTEMS catalog #3590-CD-050) (human, UniProt P04233-2 73-232, limits assumed)
T1 construct: Bought antigen; also called rhCD74; human CD74
T1 sequence (looked up): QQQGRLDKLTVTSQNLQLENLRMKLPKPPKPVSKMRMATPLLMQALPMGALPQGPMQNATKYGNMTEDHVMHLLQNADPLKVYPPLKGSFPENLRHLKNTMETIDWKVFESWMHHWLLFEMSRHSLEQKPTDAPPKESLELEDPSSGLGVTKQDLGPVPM
Assay: SPR (Biacore T200), captured on anti-human Fc, rhCD74 analyte
State the answer as a number, implicitly in nM.

BINDER: 1251-F07 heavy chain paired with VL SEQ ID NO: 272 (antibody, V domains shown) VH: QVQLVESGGGVVQPGRSLRLSCAASGFTFSSHGMHWVRQAPDKGLEWVAVIWDDGSNEVYADSVKGRFTISRDNSKNTLYLQMNSLRAEDTAVYYCARGGTRIRGLRYGTDVWGQGTTVTVSS VL: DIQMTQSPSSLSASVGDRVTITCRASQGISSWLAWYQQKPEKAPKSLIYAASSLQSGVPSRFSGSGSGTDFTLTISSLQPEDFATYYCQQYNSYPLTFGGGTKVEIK
QUANTITY NAME: Kd
READOUT VALUE: 0.185
//
BINDER: 1251-E06 heavy chain paired with VL SEQ ID NO: 272 (antibody, V domains shown) VH: QVQLVESGGGVVQPGRSLRLSCAASGFTFDSYGMHWVRQAPDKGLEWVAVIWYDGSNKVYADSVKGRFTISRDNSKNTLYLQMNSLRAEDTAVYYCARGGMVGQGAMFGLDVWGQGTTVTVSS VL: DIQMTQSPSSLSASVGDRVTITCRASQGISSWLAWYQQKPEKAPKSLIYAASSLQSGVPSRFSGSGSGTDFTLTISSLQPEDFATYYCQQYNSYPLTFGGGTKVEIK
QUANTITY NAME: Kd
READOUT VALUE: 0.376

Continue with the binder presented below.
Fill in the blank: the reported Kd of 1251-D06 heavy chain paired with VL SEQ ID NO: 272 (antibody, V domains shown) VH: QVQLVESGGGVVQPGRSLRLSCAASGFSFGSYGMHWVRQAPDKGLEWVAVVWYDGSKTIYADSVKGRFTISRDNSKNTLYLQMNSLRAEDTAVYYCARGGTLVRGAVYGLDVWGQGTTVTVSS VL: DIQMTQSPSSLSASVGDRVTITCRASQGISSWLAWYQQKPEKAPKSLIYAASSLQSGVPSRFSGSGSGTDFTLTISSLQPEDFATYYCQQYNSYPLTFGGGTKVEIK is ____.
0.0752
